- EXPERIMENTAL TARGET: human MC3R (human, UniProt P41968 1-323)
- Sequence (P41968 whole entry): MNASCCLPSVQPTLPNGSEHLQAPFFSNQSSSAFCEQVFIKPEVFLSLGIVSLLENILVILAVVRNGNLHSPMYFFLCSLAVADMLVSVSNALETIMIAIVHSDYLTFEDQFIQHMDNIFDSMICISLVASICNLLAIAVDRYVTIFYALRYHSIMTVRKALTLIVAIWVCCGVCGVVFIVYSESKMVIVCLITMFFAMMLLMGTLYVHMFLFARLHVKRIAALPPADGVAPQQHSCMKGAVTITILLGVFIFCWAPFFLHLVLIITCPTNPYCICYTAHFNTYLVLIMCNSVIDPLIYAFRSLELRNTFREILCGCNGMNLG
- TEST DESCRIPTION: cell-based or functional assay
Starred links: 1 amine or outer side, 2 acyl side, 3 side chain; linkers in the order of their positions; H or OH if unused. Positions of bridges follow the written chain, without caps; N, C: chain ends. Non-standard residues stand in square brackets, D forms with d. Primed or numbered codes have the meaning given here. dTyr(4-OMe)″ = O-methyl-D-tyrosine, COc1ccc(C[C@@H](N[*:1])C(=O)[*:2])cc1; dDip = N[C@@H](C(=O)O)C(c1ccccc1)c1ccccc1; dPhe(4-Br) = N[C@H](Cc1ccc(Br)cc1)C(=O)O; NMeR = CN[C@@H](CCCNC(=N)N)C(=O)O; Nle = CCCC[C@H](N)C(=O)O
READOUT KIND: cAMP EC50 (nM)

{"columns": ["BINDER", "READOUT KIND", "NUMERIC READOUT"],
 "data": [
  ["Ac-RC[dA]R[dDip]R[dW]C-NH2 (disulfide 2-8) [CTX-1280]", "cAMP EC50", 541],
  ["Ac-R[Nle]CR[dTyr(4-OMe)″]RWC-NH2 (disulfide 3-8; SMILES CCCC[C@H](NC(=O)[C@H](CCCNC(=N)N)NC(C)=O)C(=O)N[C@H]1CSSC[C@@H](C(N)=O)NC(=O)[C@H](Cc2c[nH]c3ccccc23)NC(=O)[C@H](CCCNC(=N)N)NC(=O)[C@@H](Cc2ccc(OC)cc2)NC(=O)[C@H](CCCNC(=N)N)NC1=O) [CTX-1614]", "cAMP EC50", 3.2],
  ["Ac-RC[dA][dR][dPhe(4-Br)]R[dW]C-NH2 (disulfide 2-8) [CTX-1250]", "cAMP EC50", 2090],
  ["Ac-R[Nle]CR[dPhe(4-Br)]RWC-NH2 (disulfide 3-8; SMILES CCCC[C@H](NC(=O)[C@H](CCCNC(=N)N)NC(C)=O)C(=O)N[C@H]1CSSC[C@@H](C(N)=O)NC(=O)[C@H](Cc2c[nH]c3ccccc23)NC(=O)[C@H](CCCNC(=N)N)NC(=O)[C@@H](Cc2ccc(Br)cc2)NC(=O)[C@H](CCCNC(=N)N)NC1=O) [CTX-1612]", "cAMP EC50", 4.5],
  ["Ac-R[Nle]CH[dPhe(4-Br)]RWC-NH2 (disulfide 3-8; SMILES CCCC[C@H](NC(=O)[C@H](CCCNC(=N)N)NC(C)=O)C(=O)N[C@H]1CSSC[C@@H](C(N)=O)NC(=O)[C@H](Cc2c[nH]c3ccccc23)NC(=O)[C@H](CCCNC(=N)N)NC(=O)[C@@H](Cc2ccc(Br)cc2)NC(=O)[C@H](Cc2c[nH]cn2)NC1=O) [CTX-1229]", "cAMP EC50", 3.5],
  ["Ac-RC[dA][NMeR][dPhe(4-Br)]R[dW]C-NH2 (disulfide 2-8; SMILES CC(=O)N[C@@H](CCCNC(=N)N)C(=O)N[C@H]1CSSC[C@@H](C(N)=O)NC(=O)[C@@H](Cc2c[nH]c3ccccc23)NC(=O)[C@H](CCCNC(=N)N)NC(=O)[C@@H](Cc2ccc(Br)cc2)NC(=O)[C@H](CCCNC(=N)N)N(C)C(=O)[C@@H](C)NC1=O) [CTX-1248]", "cAMP EC50", 2.8]
]}

Data origin, for the record: patent US20240391954A1
